B1: library; numbered along this chain (parent)
chain: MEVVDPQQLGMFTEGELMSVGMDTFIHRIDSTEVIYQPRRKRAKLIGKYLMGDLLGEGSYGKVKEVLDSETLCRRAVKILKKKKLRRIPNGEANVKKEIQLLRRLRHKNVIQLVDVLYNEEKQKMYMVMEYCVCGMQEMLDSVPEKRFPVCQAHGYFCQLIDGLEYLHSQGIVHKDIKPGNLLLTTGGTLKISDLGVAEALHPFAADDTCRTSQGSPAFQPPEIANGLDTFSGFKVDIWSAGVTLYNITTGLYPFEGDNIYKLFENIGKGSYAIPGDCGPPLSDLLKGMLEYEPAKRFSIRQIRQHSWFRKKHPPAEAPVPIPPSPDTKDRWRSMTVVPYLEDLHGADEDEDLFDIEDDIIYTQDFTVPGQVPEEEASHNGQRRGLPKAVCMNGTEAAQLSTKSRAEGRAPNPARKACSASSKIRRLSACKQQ

variants of: B1; test: STK11 functional score (HeLa growth suppression), rescaled enrichment; synonymous median = 1, nonsense median = 0 (normalised score); conditions: with HeLa; variant type: missense
Please assign not met whenever STK11 functional score is at or above 1, and met whenever it is below.

[[record]]
sequence_variant = "Q305R"
label_class = "not met"

[[record]]
sequence_variant = "T244D"
label_class = "met"

[[record]]
sequence_variant = "R297D"
label_class = "met"

[[record]]
sequence_variant = "D355C"
label_class = "not met"

[[record]]
sequence_variant = "F231G"
label_class = "not met"

[[record]]
sequence_variant = "I99P"
label_class = "met"

[[record]]
sequence_variant = "Q159A"
label_class = "not met"

[[record]]
sequence_variant = "R331E"
label_class = "not met"

[[record]]
sequence_variant = "S421T"
label_class = "not met"

[[record]]
sequence_variant = "I303N"
label_class = "not met"

[[record]]
sequence_variant = "F234V"
label_class = "not met"

